Origin of values: patent US20220251562

- testSystem: CD3 epsilon/gamma heterodimer (Homo sapiens, UniProt P07766;P09693 P07766:23-126,P09693:23-116)
- Sequence (P07766 23-126, chain 1 of 2): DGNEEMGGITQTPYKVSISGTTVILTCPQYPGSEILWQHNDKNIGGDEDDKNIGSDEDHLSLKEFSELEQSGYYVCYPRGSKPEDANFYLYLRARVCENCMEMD
- Sequence (P09693 23-116, chain 2 of 2): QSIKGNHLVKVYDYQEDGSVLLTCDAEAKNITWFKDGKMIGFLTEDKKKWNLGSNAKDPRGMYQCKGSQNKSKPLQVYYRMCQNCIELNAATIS
- experimentNotes: SPR; steady state; kinetic 65.2 nM (Table 6)
- testConditions: tags: C-terminal human IgG1 Fc fusion, AcroBiosystems; chain copies: heterodimer 1:1 (inferred); label: 5'-biotin-TEG
reportedProperty: pKd
Friendly reminder that pKd comes from taking -log10 of the concentration in mol/L.

Task item: Suppose we examine the binder GAGGGGTTTGGCATCGGGCCTGGCGCCATTCAAGCTATGC (ssDNA) [CELTIC_2s] ; what pKd value has been reported?
Reply: 6.20
